- experimental-target: EPHB2 (human) (UniProt P29323)
- Sequence (P29323 whole entry, looked up): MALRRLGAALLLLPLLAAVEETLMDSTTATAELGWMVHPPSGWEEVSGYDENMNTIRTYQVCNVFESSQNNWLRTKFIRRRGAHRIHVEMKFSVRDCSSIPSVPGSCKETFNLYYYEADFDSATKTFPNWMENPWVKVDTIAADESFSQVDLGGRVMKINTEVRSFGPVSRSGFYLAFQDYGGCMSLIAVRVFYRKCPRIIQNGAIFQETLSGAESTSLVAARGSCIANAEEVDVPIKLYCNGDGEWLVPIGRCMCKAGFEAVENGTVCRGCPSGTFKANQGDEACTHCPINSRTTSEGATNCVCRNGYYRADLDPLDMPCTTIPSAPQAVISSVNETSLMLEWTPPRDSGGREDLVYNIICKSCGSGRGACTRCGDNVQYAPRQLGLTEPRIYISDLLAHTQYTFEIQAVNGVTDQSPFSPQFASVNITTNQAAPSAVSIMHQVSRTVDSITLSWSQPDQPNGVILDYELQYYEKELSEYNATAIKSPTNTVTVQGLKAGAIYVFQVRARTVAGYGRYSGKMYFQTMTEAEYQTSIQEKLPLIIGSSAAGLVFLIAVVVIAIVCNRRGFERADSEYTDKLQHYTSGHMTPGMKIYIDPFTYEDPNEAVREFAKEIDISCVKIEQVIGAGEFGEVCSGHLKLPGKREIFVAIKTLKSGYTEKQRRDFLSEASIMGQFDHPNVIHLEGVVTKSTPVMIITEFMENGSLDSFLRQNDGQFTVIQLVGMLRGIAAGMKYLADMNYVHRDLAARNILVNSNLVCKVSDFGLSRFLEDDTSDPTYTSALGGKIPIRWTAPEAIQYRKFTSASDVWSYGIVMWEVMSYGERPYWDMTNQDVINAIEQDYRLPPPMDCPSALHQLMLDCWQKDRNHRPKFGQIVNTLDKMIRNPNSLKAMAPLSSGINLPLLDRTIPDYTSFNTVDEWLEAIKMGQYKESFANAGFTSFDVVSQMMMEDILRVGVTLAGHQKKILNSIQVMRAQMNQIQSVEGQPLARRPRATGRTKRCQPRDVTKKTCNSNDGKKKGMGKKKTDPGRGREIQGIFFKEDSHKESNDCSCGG
- test-details: KINOMEscan competition binding
- condition-details: compound 10.0 µM
reported-metric: kinase still bound, per cent of control (%)
Enter your answer as a number in %; do not include the unit.

Worked examples follow.
COc1ccc(-c2ccc3c(N4CCOCC4)nc(N4C[C@@H](C)O[C@@H](C)C4)nc3n2)cc1CO; 100
CCC(=O)N1CCN(c2ccc(-n3c(=O)ccc4cnc5ccc(-c6cnc7ccccc7c6)cc5c43)cc2C(F)(F)F)CC1; 100

Exam item: What measured kinase still bound, per cent of control goes with "CC(C)n1nc(-c2cc3cc(O)ccc3[nH]2)c2c(N)ncnc21" ?
Marked response: 32

Exam item: Recorded kinase still bound, per cent of control of "COC(=O)Nc1ccc(-c2nc(N3CCOCC3)c3cnn(C4CCN(C(=O)OC)CC4)c3n2)cc1" , please.
Marked response: 100

* * *

- experimental-target: NIM1 (human) (UniProt Q8IY84)
- Sequence (Q8IY84 whole entry, looked up): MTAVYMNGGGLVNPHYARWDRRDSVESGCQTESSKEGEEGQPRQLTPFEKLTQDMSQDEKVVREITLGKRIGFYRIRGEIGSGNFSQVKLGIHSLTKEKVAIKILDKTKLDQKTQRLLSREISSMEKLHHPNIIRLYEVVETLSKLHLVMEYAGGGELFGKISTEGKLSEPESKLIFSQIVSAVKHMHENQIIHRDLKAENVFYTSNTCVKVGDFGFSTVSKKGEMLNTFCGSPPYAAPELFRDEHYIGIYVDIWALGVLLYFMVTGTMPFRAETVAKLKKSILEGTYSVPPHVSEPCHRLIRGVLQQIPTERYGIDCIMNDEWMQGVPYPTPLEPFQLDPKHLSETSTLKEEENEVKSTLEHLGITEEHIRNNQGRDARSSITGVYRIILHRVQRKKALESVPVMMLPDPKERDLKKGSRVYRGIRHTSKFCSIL
- test-details: KINOMEscan competition binding
- condition-details: compound 10.0 µM
Measured kinase still bound, per cent of control accompanies every entry in the list below.
Entry rule: numbers only, all in %.

Here is how some compounds turned out for kinase still bound, per cent of control.
COc1ccc(-c2ccc3c(N4CCOCC4)nc(N4C[C@@H](C)O[C@@H](C)C4)nc3n2)cc1CO; 97
CC(C)n1nc(-c2cc3cc(O)ccc3[nH]2)c2c(N)ncnc21; 88
COC(=O)Nc1ccc(-c2nc(N3CCOCC3)c3cnn(C4CCN(C(=O)OC)CC4)c3n2)cc1; 100

Attention now turns to another entry.
Exam item: Tell me the measured kinase still bound, per cent of control of "CCC(=O)N1CCN(c2ccc(-n3c(=O)ccc4cnc5ccc(-c6cnc7ccccc7c6)cc5c43)cc2C(F)(F)F)CC1" , please.
Marked response: 84

* * *

kinase still bound, per cent of control values for the compounds below.
- experimental-target: CAMK2B (human)
- test-details: KINOMEscan competition binding
- condition-details: compound 10.0 µM

Solved cases below.
COc1ccc(-c2ccc3c(N4CCOCC4)nc(N4C[C@@H](C)O[C@@H](C)C4)nc3n2)cc1CO; 96%
CC(C)n1nc(-c2cc3cc(O)ccc3[nH]2)c2c(N)ncnc21; 63%

Exam item: Lookup: kinase still bound, per cent of control / CAMK2B (human) / "COC(=O)Nc1ccc(-c2nc(N3CCOCC3)c3cnn(C4CCN(C(=O)OC)CC4)c3n2)cc1"
Marked response: 100%

Exam item: Please tell me: kinase still bound, per cent of control of "CCC(=O)N1CCN(c2ccc(-n3c(=O)ccc4cnc5ccc(-c6cnc7ccccc7c6)cc5c43)cc2C(F)(F)F)CC1" , system CAMK2B (human)?
Marked response: 100%

* * *

- experimental-target: EPHA1 (human)
- test-details: KINOMEscan competition binding
- condition-details: compound 10.0 µM
Parameter kinase still bound, per cent of control: see the listing below.
Just the number in %, nothing appended.

Look over these answered cases.
CCC(=O)N1CCN(c2ccc(-n3c(=O)ccc4cnc5ccc(-c6cnc7ccccc7c6)cc5c43)cc2C(F)(F)F)CC1; 62
COc1ccc(-c2ccc3c(N4CCOCC4)nc(N4C[C@@H](C)O[C@@H](C)C4)nc3n2)cc1CO; 96
CC(C)n1nc(-c2cc3cc(O)ccc3[nH]2)c2c(N)ncnc21; 2.7

Exam item: Quick one: kinase still bound, per cent of control of "COC(=O)Nc1ccc(-c2nc(N3CCOCC3)c3cnn(C4CCN(C(=O)OC)CC4)c3n2)cc1" ?
Marked response: 100

Hello, the source for this data is the kinase profiling compilation of Christmann-Franck et al. (2016), in case you need it.
